- Test system: HT-29
- PROTOCOL_DETAILS: NCI tumour cell line growth inhibition, 48 h
The source made the active and inactive calls. No stated cut-off is given here; in the data, active = GI50 up to about 1.1 µM and inactive = higher.
Tick one outcome: 1 (active), 0 (inactive)

COMPOUND	CLASS_ASSIGNMENT
COc1cc([C@H]2c3[nH]c4ccccc4c3C[C@H]3COC(=O)N32)cc(OC)c1O	1
COc1cc(/C=C2\CC3C4CC[C@H]5C[C@@H](O)CC[C@]5(C)C4CC[C@]3(C)C2=O)cc(OC)c1OC (stereo not given in full)	0

Input line: Could you kindly confirm the outcome this assay logged for CC[P+]1(c2ccccc2)[C@@H](C)CC[C@@H]1C ?
Output line: 0

Input line: Could you kindly confirm the outcome this assay logged for COc1ccc(-c2cc3cc(Cl)cc(Cl)c3oc2=O)cc1OC ?
Output line: 0

Input line: Could you kindly confirm the outcome this assay logged for COC(=O)C(CCS(=O)(=O)CC(=O)C(=O)Nc1cccc(C(C)=O)c1)C(=O)OC ?
Output line: 0
